Compiled from multiple publications: pKi readings for Serine/threonine-protein kinase pim-2 (Homo sapiens, UniProt Q9P1W9).
Give only the number. pKi is defined as minus log10 of concentration in molar units.

Cn1ncc(NC(=O)c2nc(-c3ccccc3F)sc2N)c1N1CCC[C@H](N)C1 7.70
CC(C)Oc1ccc(F)c(-c2nc(C(=O)Nc3cnccc3N3CCC[C@H](N)C3)c(N)s2)c1F 9.25
CN1CCC(c2c(NC(=O)c3nc(-c4c(F)cccc4F)sc3N)cnn2C)CC1 6.70

Asked: Field: pKi (Serine/threonine-protein kinase pim-2 (Homo sapiens, UniProt Q9P1W9)). Entry: `CCn1cc(-c2cc3c(cn2)cnn3-c2cccc(N3CCC[C@@H](N)C3)n2)cn1`
Given back: 7.97

====

Compiled from multiple publications: pKi readings for Serine/threonine-protein kinase pim-2 (Homo sapiens, UniProt Q9P1W9).
Give only the number. pKi is defined as minus log10 of concentration in molar units.

Look over these answered cases.
molecule	numeric_result
Cn1cc(-c2cc3c(cn2)cnn3-c2cccc(N3CC(O)(CN)C3)n2)cn1	7.69
CCc1cncc(-c2cc3c(cn2)cnn3-c2ccc(C3CC3)c(N3CCC[C@H](N)C3)n2)c1	9.73
Nc1sc(-c2c(F)cccc2F)nc1C(=O)Nc1cnn(CCF)c1	7.42
CCc1cncc(-c2cc3c(cn2)cnn3-c2cccc(N3CCNC[C@@H](O)C3)n2)c1 (single isomer, unassigned)	8.34
CCn1cc(-c2cc3c(cn2)cnn3-c2cccc(N3CC[C@@H](N)C3)n2)cn1	7.76

Let us examine a further case.
Asked: Field: pKi (Serine/threonine-protein kinase pim-2 (Homo sapiens, UniProt Q9P1W9)). Entry: `Nc1sc(-c2ccccc2OC(F)(F)F)nc1C(=O)Nc1cnccc1N1CCC[C@H](N)C1`
Given back: 7.79

====

pKi: −log10 of the molar value.
Compiled from multiple publications: pKi readings for Serine/threonine-protein kinase pim-2 (Homo sapiens, UniProt Q9P1W9).
Decide using pKi: a value greater than or equal to 8 is rule met, a smaller one is rule not met.

Asked: Textbook exercise: given the entry `Nc1sc(-c2cccc(Br)c2)nc1C(=O)Nc1cnccc1N1CCC[C@H](N)C1` , state whether its pKi is greater than or equal to 8.
Given back: rule met

Asked: Textbook exercise: given the entry `Cc1cncc(-c2cc3c(cn2)cnn3-c2ccc(=O)n([C@@H]3CCCNC3)n2)n1` , state whether its pKi is greater than or equal to 8.
Given back: rule not met

Asked: Textbook exercise: given the entry `Nc1sc(-c2c(F)cccc2Cl)nc1C(=O)Nc1cnccc1N1CCC[C@H](N)C1` , state whether its pKi is greater than or equal to 8.
Given back: rule met

Asked: Textbook exercise: given the entry `c1cc(N2CCCNCC2)nc(-n2ncc3cnc(-c4cn[nH]c4)cc32)c1` , state whether its pKi is greater than or equal to 8.
Given back: rule met

Asked: Textbook exercise: given the entry `CCn1ncc(NC(=O)c2nc(-c3ccccc3F)sc2N)c1N1CCC[C@@H](N)CC1` , state whether its pKi is greater than or equal to 8.
Given back: rule not met

Asked: Textbook exercise: given the entry `Cn1cc(NC(=O)c2nc(-c3c(F)cccc3F)sc2N)cn1` , state whether its pKi is greater than or equal to 8.
Given back: rule not met

Asked: Textbook exercise: given the entry `Cc1cncc(-c2cc3c(cn2)cnn3-c2cccc(N3CCCNCC3)n2)c1` , state whether its pKi is greater than or equal to 8.
Given back: rule met

====

Compiled from multiple publications: pKi readings for Serine/threonine-protein kinase pim-2 (Homo sapiens, UniProt Q9P1W9).
Give only the number. pKi is defined as minus log10 of concentration in molar units.

Look over these answered cases.
compound	attribute_measured	numeric_result
Cc1cncc(-c2cc3c(cn2)cnn3-c2cccc(N3CC[C@H](N)C3)n2)n1	pKi	8.64
Cn1ncc(NC(=O)c2cncc(-c3ccccc3F)n2)c1N1CCC[C@H](N)CC1	pKi	6.24
Cc1cncc(-c2cc3c(cn2)cnn3-c2cccc(N3CCC[C@H](N)C3=O)n2)n1	pKi	8.37
Cc1cncc(-c2cc3c(cn2)cnn3-c2cccc(N3CCNC[C@H]3C)n2)n1	pKi	9.18
c1cc(N2CCNCC2)nc(-n2ncc3cnc(-c4cncc(C5CC5)c4)cc32)c1	pKi	8.04

Asked: Quick one: pKi of `N[C@@H]1CCCN(c2cccc(-n3ncc4cnc(-c5cncs5)cc43)n2)C1` ?
Given back: 8.35

Asked: Quick one: pKi of `Cc1cncc(-c2cc3c(cn2)cnn3-c2cnc(O)c(N3CCC[C@H](N)C3)n2)n1` ?
Given back: 8.15

Asked: Quick one: pKi of `C=C(C)c1nc(C(=O)Nc2cnccc2N2CCC[C@H](N)C2)c(N)s1` ?
Given back: 6.45

Asked: Quick one: pKi of `CCNC(=O)Nc1ccc(-c2nc(C(=O)Nc3cnccc3N3CCC[C@H](N)C3)c(N)s2)cc1` ?
Given back: 9.90

Asked: Quick one: pKi of `Nc1sc(-c2cccc(F)c2F)nc1C(=O)Nc1cnccc1N1CCC[C@H](N)C1` ?
Given back: 10.73

====

pKi: −log10 of the molar value.
Compiled from multiple publications: pKi readings for Serine/threonine-protein kinase pim-2 (Homo sapiens).
Decide using pKi: a value greater than or equal to 8 is 1, a smaller one is -1.

Cc1cccc(C)c1-c1nc(C(=O)Nc2cnccc2N2CCC[C@H](N)C2)c(N)s1 -1

Asked: Textbook exercise: given the entry `O[C@@H]1CNCCN(c2cccc(-n3ncc4cnc(-c5cnn(CC(F)(F)F)c5)cc43)n2)C1` , state whether its pKi is greater than or equal to 8.
Given back: 1

Asked: Textbook exercise: given the entry `C[C@]1(O)CNCCN(c2cccc(-n3ncc4cnc(-c5cnn(CC(F)(F)F)c5)cc43)n2)C1` , state whether its pKi is greater than or equal to 8.
Given back: -1

Asked: Textbook exercise: given the entry `Cn1ncc(NC(=O)c2nc(-c3ccccc3F)ccc2N)c1N1CCC[C@@H](N)C1` , state whether its pKi is greater than or equal to 8.
Given back: 1

====

Compiled from multiple publications: pKi readings for Serine/threonine-protein kinase pim-2 (Homo sapiens).
Give only the number. pKi is defined as minus log10 of concentration in molar units.

compound	assayed_target	pKi
Cn1ncc(NC(=O)c2nc(-c3c(F)cccc3F)sc2N)c1OCC1CCNCC1	Serine/threonine-protein kinase pim-2 (Homo sapiens)	7.34
Nc1sc(-c2cc[nH]n2)nc1C(=O)Nc1cnccc1N1CCC[C@H](N)C1	Serine/threonine-protein kinase pim-2 (Homo sapiens)	9.58
OCCn1cc(-c2cc3c(cn2)cnn3-c2cccc(N3CCCNCC3)n2)cn1	Serine/threonine-protein kinase pim-2 (Homo sapiens)	8.27

Asked: Field: pKi (Serine/threonine-protein kinase pim-2 (Homo sapiens)). Entry: `NCC1CN(c2cccc(-n3ncc4cnc(-c5cnn(CC(F)(F)F)c5)cc43)n2)C1`
Given back: 7.90

Asked: Field: pKi (Serine/threonine-protein kinase pim-2 (Homo sapiens)). Entry: `CCCOc1ccc(F)c(-c2nc(C(=O)Nc3cnccc3N3CCC[C@H](N)C3)c(N)s2)c1F`
Given back: 9.61

Asked: Field: pKi (Serine/threonine-protein kinase pim-2 (Homo sapiens)). Entry: `FC(F)(F)Cn1cc(-c2cc3c(cn2)cnn3-c2cncc(N3CCCNCC3)n2)cn1`
Given back: 8.18

Asked: Field: pKi (Serine/threonine-protein kinase pim-2 (Homo sapiens)). Entry: `COc1cc(F)c(-c2nc(C(=O)Nc3cnccc3N3CCC[C@H](N)C3)c(N)s2)c(F)c1`
Given back: 10.02

====

Compiled from multiple publications: log10(Ki) readings for Serine/threonine-protein kinase pim-2 (Homo sapiens, UniProt Q9P1W9).
Scale type: logarithmic (base 10). Underlying Ki unit: nM.

molecule	numeric_result
CC(C)(C)n1cc(-c2cc3c(cn2)cnn3-c2cccc(N3CCCNCC3)n2)cn1	1.02
N#CCn1cc(-c2cc3c(cn2)cnn3-c2cccc(N3CCCNCC3)n2)cn1	0.17

Asked: Quick one: log10(Ki) of `Cc1cncc(-c2cc3c(cn2)cnn3-c2ccc(C)c(N3CCC[C@H](N)C3)n2)n1` ?
Given back: -0.85

Asked: Quick one: log10(Ki) of Cn1ncc(NC(=O)c2nc(-c3ccccc3F)ccc2N)c1N1CCCC(N)CC1 (stereo not drawn) ?
Given back: 0.22

Asked: Quick one: log10(Ki) of `Cc1cncc(-c2cc3c(cn2)cnn3-c2cccc(C(=O)N3CCC[C@@H](N)C3)n2)n1` ?
Given back: 2.29

Asked: Quick one: log10(Ki) of `N#Cc1cncc(-c2cc3c(cn2)cnn3-c2cccc(N3CCNCC3)n2)n1` ?
Given back: 1.21

Asked: Quick one: log10(Ki) of `Nc1sc(C2CCCC2)nc1C(=O)Nc1cnccc1N1CCC[C@H](N)C1` ?
Given back: 0.06

Asked: Quick one: log10(Ki) of Cc1cncc(-c2cc3c(cn2)cnn3-c2cccc(C3CNCCC3O)n2)n1 (stereo not drawn) ?
Given back: 0.94
